Target: T1, DFNB31_1, Q9P202
T1 sequence (Q9P202 135-233, limits assumed, looked up): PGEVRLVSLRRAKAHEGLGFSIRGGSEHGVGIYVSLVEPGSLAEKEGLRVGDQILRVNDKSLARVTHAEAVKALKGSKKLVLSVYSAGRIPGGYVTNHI
Assay: holdup assay
Set-up: key: below the threshold = too weak to quantify, mostly under pKd 3.1 to 4
Settings: plain residues with an end cap or a label only (N-terminal biotin on a linker: ahx)
property label: pKd

Known results for binders:
Data request: Given PSASCAVTAA [PDLIM4, P50479;P50479-2] , state its recorded pKd.
Data returned: below the threshold

Data request: What do we get for RRRKRKRTYL [HPV49-L2, P36762] ?
Data returned: 3.58

Data request: What do we get for SDSSGQEYSL [KCTD3, Q9Y597] ?
Data returned: below the threshold

Data request: What do we get for LSDPSVSTVV [GRIN1, Q05586;Q05586-2] ?
Data returned: below the threshold

Data request: What do we get for NRKREIFSNF [NHERF2, Q15599] ?
Data returned: below the threshold

Others:
Data request: Given HNAFLSVTTV [PDZRN4, Q6ZMN7] , state its recorded pKd.
Data returned: below the threshold

Data request: What do we get for ESLLLGPSNF [SHROOM4, Q9ULL8] ?
Data returned: below the threshold

Data request: What do we get for RAVEEEESRF [PSCDBP, O60759] ?
Data returned: below the threshold

Data request: What do we get for TVICWPGSLV [LNX2, Q8N448] ?
Data returned: below the threshold

Data request: What do we get for GYDWGPATDL [TJP3, O95049] ?
Data returned: 4.11
